Recorded MLD values for a group of molecules are listed next.
System: SD rats
Conditions: SD, rat, in vivo, iv

{"columns": ["Molecule", "Readout Units", "Bound Sign", "MLD"],
 "data": [
  ["CCn1nnc(CN2N=C(c3ccccn3)c3cc(Br)ccc3N(C)C2=O)n1", "mg/kg", ">", 36],
  ["COC(=O)CCN1N=C(c2ccccn2)c2cc(Br)ccc2N(C)C1=O", "mg/kg", ">", 20],
  ["CCOC(=O)CN1N=C(c2ccccn2)C(Br)=CN(C)C1=O", "mg/kg", ">", 18.4],
  ["Cc1cnc2n1-c1ccc(Br)cc1C(c1ccccn1)=NN2COC(=O)C(C)C", "mg/kg", ">", 10],
  ["CON(C)C(=O)OCN1N=C(c2ccccn2)c2cc(Br)ccc2N(C)C1=O", "mg/kg", ">", 20],
  ["CN1C(=O)N(CCOC(=O)CCl)N=C(c2ccccn2)c2cc(Br)ccc21", "mg/kg", ">", 40],
  ["CC(C)C(=O)OCCN1N=C(c2ccccn2)c2cc(Br)ccc2N(C)C1=O", "mg/kg", "=", 20],
  ["CN1C(=O)N(COC(=O)N2CCCC2)N=C(c2ccccn2)c2cc(Br)ccc21", "mg/kg", "=", 40],
  ["CC[C@@H](C)OC(=O)CN1N=C(c2ccccn2)c2cc(Br)ccc2-n2c(C)cnc21", "mg/kg", "=", 15],
  ["CN1C(=O)N(C[n+]2ccccc2)N=C(c2ccccn2)c2cc(Br)ccc21", "mg/kg", "=", 5],
  ["CCC(C)(C)OC(=O)CN1N=C(c2ccccn2)c2cc(Br)ccc2-n2c(C)cnc21", "mg/kg", "=", 30],
  ["CN1C(=O)N(CCOC(=O)CCCl)N=C(c2ccccn2)c2cc(Br)ccc21", "mg/kg", "=", 15],
  ["CC(C)Oc1cc(CCN2N=C(c3ccccn3)c3cc(Br)ccc3N(C)C2=O)on1", "mg/kg", "=", 30],
  ["CC(C)OC(=O)C(C)N1N=C(c2ccccn2)c2cc(Br)ccc2N(C)C1=O (stereo not drawn)", "mg/kg", "=", 20],
  ["Brc1ccc2c(c1)C(c1ccccn1)=NN1CCN=C1N2", "mg/kg", ">", 40],
  ["C#C[C@@H](C)OC(=O)CN1N=C(c2ccccn2)c2cc(Br)ccc2-n2c(C)cnc21", "mg/kg", "=", 40],
  ["CC(C)OC(=O)CN1C2=NCCN2N=C(c2ccccn2)c2cc(Br)ccc21", "mg/kg", ">", 40],
  ["Cc1cnc2n1-c1ccc(Br)cc1C(c1ccccn1)=NN2COC(=O)CCCl", "mg/kg", ">", 10],
  ["CC[C@@H](C)OC(=O)CN1N=C(c2ccccn2)c2cc(Br)ccc2N(C)C1=O", "mg/kg", "=", 30],
  ["CC(C)Oc1nonc1CCN1N=C(c2ccccn2)c2cc(Br)ccc2N(C)C1=O", "mg/kg", ">", 60],
  ["CC(C)OC(=O)OCCN1N=C(c2ccccn2)c2cc(Br)ccc2N(C)C1=O", "mg/kg", "=", 20]
]}

====

Recorded TI values for a group of compounds are listed next.
System: SD rats
Conditions: rat, in vivo

{"columns": ["Compound", "TI"],
 "data": [
  ["C#CC(C)(C)OC(=O)CCC1N=C(c2ccccn2)c2cc(Br)ccc2N(C)C1=O (stereo not drawn) [Compound 17]", ">3.8"],
  ["C=CC(C)(C)OC(=O)CCC1N=C(c2ccccn2)c2cc(Br)ccc2N(C)C1=O (stereo not drawn) [Compound 19]", ">1.9"],
  ["Cc1cnc2n1-c1ccc(Br)cc1C(c1ccccn1)=NC2COS(=O)c1ccccc1 (stereo not drawn) [Compound 195]", ">2.9"]
]}

====

Test system: SD rats
Conditions: SD, rat, in vivo

{"columns": ["Smiles Str", "TI"],
 "data": [
  ["Cc1cnc2n1-c1ccc(Br)cc1C(c1ccccn1)=NN2COC(=O)CCCl", ">1.3"],
  ["CC(C)OC(=O)CN1C2=NCCN2N=C(c2ccccn2)c2cc(Br)ccc21", ">1"],
  ["Cc1cnc2n1-c1ccc(Br)cc1C(c1ccccn1)=NN2CC(=O)OC1(C)COC1", 4]
]}

====

System: SD rats
Assay: animal or person
Type: in vivo
Details: Rattus norvegicus, iv, read-out: Minimal effective analgesic dose
Metric: minimal effective dose (mg/kg)

{"columns": ["Compound", "Result"],
 "data": [
  ["CC(C)C(C)OC(=O)CN1N=C(c2ccccn2)c2cc(Br)ccc2N(C)C1=O (stereo not shown)", 15],
  ["C#C[C@@H](C)OC(=O)CN1N=C(c2ccccn2)c2cc(Br)ccc2-n2c(C)cnc21", 10],
  ["CCN1C(=O)N(CC(=O)OC(C)C)N=C(c2ccccn2)c2cc(Br)ccc21", 10],
  ["CCC(C)(C)OC(=O)CN1N=C(c2ccccn2)c2cc(Br)ccc2-n2c(C)cnc21", 20]
]}

====

Recorded minimal effective dose values for a group of compounds are listed next.
Tested on: SD rats
Assay: animal or person
Type: in vivo
Conditions: Rattus norvegicus, iv, read-out: Minimal effective analgesic dose

{"columns": ["Compound", "Readout Units", "minimal effective dose"],
 "data": [
  ["CCN(C)C(=O)OCN1N=C(c2ccccn2)c2cc(Br)ccc2N(C)C1=O [Compound 292]", "mg/kg", 20],
  ["CCOC(=O)CN1N=C(c2ccccn2)C=CN(C)C1=O [Compound 347]", "mg/kg", 20],
  ["CN1C(=O)N(CC(=O)OC2COC2)N=C(c2ccccn2)c2cc(Br)ccc21 [Compound 245]", "mg/kg", 20],
  ["CCC(C)(C)OC(=O)CN1N=C(c2ccccn2)c2cc(Br)ccc2N(C)C1=O [Compound 255]", "mg/kg", 20]
]}

====

Test system: SD rats
Settings: rat, in vivo, iv

{"columns": ["Compound", "Assayed System", "MLD"],
 "data": [
  ["CN1C(=O)C(CCC(=O)OC2(C)COC2)N=C(c2ccccn2)c2cc(Br)ccc21 (stereo not shown)", "SD rats", ">1 mg/kg"],
  ["CC(=O)C(C)(C)OC(=O)CCC1N=C(c2ccccn2)c2cc(Br)ccc2-n2c(C)cnc21 (stereo not shown)", "SD rats", ">5 mg/kg"],
  ["C=CC(C)(C)OC(=O)CCC1N=C(c2ccccn2)c2cc(Br)ccc2N(C)C1=O (stereo not shown)", "SD rats", ">1.9 mg/kg"],
  ["Cc1cnc2n1-c1ccc(Br)cc1C(c1ccccn1)=NC2COS(=O)c1ccccc1 (stereo not shown)", "SD rats", ">21.8 mg/kg"]
]}

====

Test system: SD rats
Settings: SD, rat, in vivo, iv
Metric: MLD (mg/kg)

{"columns": ["Smiles Str", "Metric", "Result"],
 "data": [
  ["CN1C(=O)N(COC(=O)CCl)N=C(c2ccccn2)c2cc(Br)ccc21", "MLD", 20],
  ["Cc1cnc2n1-c1ccc(Br)cc1C(c1ccccn1)=NN2CCOC(=O)N(C)C", "MLD", 20],
  ["C=CC1(OC(=O)CN2N=C(c3ccccn3)c3cc(Br)ccc3N(C)C2=O)COC1", "MLD", 20]
]}

====

Test system: SD rats
Settings: rat, in vivo, iv

{"columns": ["Compound", "MLD"],
 "data": [
  ["CN1C(=O)C(CCC(=O)OC2COC2)N=C(c2ccccn2)c2cc(Br)ccc21 (stereo not shown) [Compound 16]", ">22.5 mg/kg"],
  ["Cc1cnc2n1-c1ccc(Br)cc1C(c1ccccn1)=NC2CCC(=O)OC1COC1 (stereo not shown) [Compound 4]", ">22.5 mg/kg"],
  ["C=CC(C)(C)OC(=O)CCC1N=C(c2cccc[n+]2[O-])c2cc(Br)ccc2N(C)C1=O (stereo not shown) [Compound 20]", ">22.5 mg/kg"],
  ["CN1C(=O)C(CO)N=C(c2ccccn2)c2cc(Br)ccc21 (stereo not shown) [Compound 37]", ">10 mg/kg"],
  ["COC(=O)CCC1N=C(c2ccccn2)c2cc([N+](=O)[O-])ccc2N(C)C1=O (stereo not shown) [Compound 27]", ">18 mg/kg"],
  ["Cc1cnc2n1-c1ccc(Br)cc1C(c1ccccn1)=NC2CCOC(=O)N(C)C.O=S(=O)(O)c1ccccc1 (stereo not shown) [Compound 156D]", ">7.5 mg/kg"],
  ["C#CC(C)(C)OC(=O)CCC1N=C(c2ccccn2)c2cc(Br)ccc2N(C)C1=O (stereo not shown) [Compound 17]", ">5 mg/kg"],
  ["CC(=O)OCCC1N=C(c2ccccn2)c2cc(Br)ccc2-n2c(C)cnc21.O=S(=O)(O)c1ccccc1 (stereo not shown) [Compound 145D]", ">16.9 mg/kg"],
  ["CCOC(=O)CCC1N=C(c2ccccn2)c2cc([N+](=O)[O-])ccc2N(C)C1=O (stereo not shown) [Compound 28]", ">11.3 mg/kg"],
  ["CC(C)OC(=O)OCC1N=C(c2ccccn2)c2cc(Br)ccc2N(C)C1=O (stereo not shown) [Compound 55]", ">20 mg/kg"]
]}
